molecular target: S1P3 (Homo sapiens, UniProt Q99500); experiment: Receptor binding assay, [33P]sphingosine 1-phosphate competition, S1P3; conditions: 384 well-plate; read-out: S1P3 binding IC50 (M) (384 well-plate)
Sequence (Q99500 whole entry, species assumed): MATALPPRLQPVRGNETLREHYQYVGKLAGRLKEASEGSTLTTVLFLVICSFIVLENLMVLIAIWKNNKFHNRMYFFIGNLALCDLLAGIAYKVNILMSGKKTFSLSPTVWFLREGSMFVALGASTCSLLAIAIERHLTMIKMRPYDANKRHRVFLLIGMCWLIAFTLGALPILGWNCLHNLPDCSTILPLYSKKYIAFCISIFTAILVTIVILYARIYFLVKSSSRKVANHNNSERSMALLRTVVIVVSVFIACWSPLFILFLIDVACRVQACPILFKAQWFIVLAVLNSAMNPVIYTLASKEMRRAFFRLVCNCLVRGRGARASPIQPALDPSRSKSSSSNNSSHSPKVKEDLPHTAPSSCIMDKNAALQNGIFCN
Structures can show the parent of a compound that is named as a salt.
Entries and their measured IC50 follow.
Just the number in M, nothing appended.

Recorded results for 2 compounds are shown here.
                                   compound                     target_or_system  measured
0  COCc1cc(-c2nc(-c3ccnc(CNCC(=O)O)c3)no2)ccc1-c1ccccc1C  S1P3 (Homo sapiens, UniProt Q99500)  1.62e-07
1  COCc1cc(-c2nc(-c3cnc(NCCCC(=O)O)c(C)c3)no2)ccc1-c1ccccc1C [Example 57, hydrochloride salt]  S1P3 (Homo sapiens, UniProt Q99500)  8.67e-06

Note to self: IC50 recorded for COCc1cc(-c2nc(-c3cnc(NCCC(=O)O)c(Cl)c3)no2)ccc1-c1cccc(F)c1C [Example 72, hydrochloride salt] was 3.78e-06

Note to self: IC50 recorded for COCc1cc(-c2nc(-c3cnc(Cl)c(F)c3)no2)ccc1-c1ccccc1C was 3e-06

Note to self: IC50 recorded for COCc1cc(-c2nc(-c3cnc(NCCC(=O)O)c(Cl)c3)no2)ccc1-c1ccccc1C [Example 37, hydrochloride salt] was 1.5e-05

Note to self: IC50 recorded for COCc1cc(-c2nc(-c3ccc(N)nc3)no2)ccc1-c1ccccc1F was 3.25e-06

Measured values drawn from patent US20110306636A1 for this set.
